Assay: yeast display, Sf9 membrane polyspecificity reagent, FACS + sequencing; frameworks hold sequencing errors

>  <residue.string>
QVQLQETRGGLDQAGDSLRLRCAASVSTLPVYTIARYRKAAVKEREFVAANTYTGGRTYYSDSVKGRFTISRDNAKNSVYLQMKSLKPDDTAVYYCAAEYGTYFVRYFAGASYRYGYWGQGTQVTVSS

>  <polyreactivity (PSR sort gate)>
low polyreactivity

$$$$
>  <residue.string>
QVQLVESGGGLVQAGGSLRLSCAASGSIFKYNTMGWYRQAPRKERELVAAINGGGSTYYADSVKGRFTISRDNAKNTVYLLMNSLKPEDTAVYYCNARQWYWESPDDYWGQGTQVTVSS

>  <polyreactivity (PSR sort gate)>
low polyreactivity

$$$$
>  <residue.string>
QVQLVESGGGLVQAGGSLRLSCAASGSIFHGYAMGWYRQAPGKERELVAAITYSGGRTYYADSVKGRFTISRDNAKNTVYLQMNSLKPEDTAVYYCAALTRRVKKYDYWGQGTQVTVSS

>  <polyreactivity (PSR sort gate)>
high polyreactivity

$$$$
>  <residue.string>
QVQLVESGGGLVQEGGSLRLSCAASGSIFLFYAMGWYRPAPGKERELVARITSSGGTTYYADSVKGRFTISRDNAKNTVYLQMNSLKPEDTAVYYCAAAYIRRSPYYYWGQGTQVTVSS

>  <polyreactivity (PSR sort gate)>
high polyreactivity

$$$$
>  <residue.string>
QVQLVESGGGLVQAGGSLRLSCAASGSTFYNNAMGWYRQAPGKERELVAAISNVSTYYADSVKGRFTISRDNAKNTVYLQMNSLKPEDTAVYYCAARVLLWYYSWRYYYWGQGTQVTVSS

>  <polyreactivity (PSR sort gate)>
low polyreactivity

$$$$
